These measurements were taken from ChEMBL document CHEMBL1144180.

- EXPERIMENT DESCRIPTION: Inhibition of alpha-glucosidase at 10.0 ug/ml
ASSAY READOUT: inhibition (%)

Take a look at these entries with their results.
COMPOUND | inhibition [%]
COc1ccc([C@@H](CNC(=O)/C=C/c2ccccc2)O[C@@H]2O[C@H](CO)[C@@H](O)[C@H](O)[C@H]2O)cc1 | 17.6
COc1ccc([C@@H](CNC(=O)/C=C/c2ccccc2)OC)cc1 | 12.6
COc1ccc([C@H](O)CNC(=O)/C=C/c2ccccc2)cc1 | 36

A = COc1ccc([C@H](O)CNC(=O)c2ccccc2)cc1
B = CC(C)=CCOc1ccc(/C=C/NC(=O)/C=C/c2ccccc2)cc1
C = COc1ccc(/C=C/NC(=O)/C=C/c2ccccc2)cc1 [ANHYDROAEGELINE]
D = CC(C)=CCOc1ccc(CCNC(=O)/C=C/c2ccccc2)cc1
E = COc1ccc([C@@H](CNC(=O)/C=C\c2ccccc2)O[C@@H]2O[C@H](CO)[C@@H](O)[C@H](O)[C@H]2O)cc1
Please give the order of these compounds when sorted by inhibition, largest value leading. I'd appreciate it if you listed the labels in the requested order.
C, B, D, A, E
(C: 56.5%, B: 30.1%, D: 19.7%, A: 13.5%, E: 8.8%)
